TARGET OR SYSTEM: polyclonal IgG (Gammanorm, Octapharma, Sweden)
EXPERIMENT NOTES: SPR (Biacore 8K+), variant amine-coupled to CM5, Gammanorm as analyte, steady state fit
# Lookup of reported Kd keyed by entry
VALUE KIND: Kd (nM)

- pAM257 (Protein L C2 domain; H, H, Y at positions 10, 45, 60) (designed binder) PKEEVTIKVHLIFADGKTQTAEFKGTFEEATAKAYAYADLLAKEHGEYTADLEDGGNTIYIKFAGKETPETPEE: 98
- pAM238 (Protein L B3 domain; N10H, N45H, N60Q) (designed binder) PKEEVTIKAHLIYADGKTQTAEFKGTFEEATAEAYRYADLLAKEHGKYTVDVADKGYTLQIKFAGKEKTPEE: 82
- pAM235 (Protein L B1 domain; N10H, N45H, N60Q) (designed binder) SEEEVTIKAHLIFANGSTQTAEFKGTFEKATSEAYAYADTLKKDHGEYTVDVADKGYTLQIKFAGKEKTPEE: 101
- pAM258 (Protein L C2b domain; N10H, N45H, N60Y) (designed binder) PKEEVTIKVHLIFADGKTQTAEFKGTFEEATAKAYAYADLLAKEHGEYTADLEDGGYTIYIKFAGKETPETPEE: 45
- pAM237 (Protein L B2 domain; N10H, N45H, N60Q) (designed binder) PKEEVTIKAHLIYADGKTQTAEFKGTFEEAAAEAYRYADALKKDHGEYTVDVADKGYTLQIKFAGKEKTPEE: 72
